Reported viability at 24 h, 20 µM values for the following molecules.
# measurement.notes: Cytotoxicity against rat C6 cells assessed as cell viability at 20 uM after 24 hrs by MTT assay relative to control
# Assay type: cell-based
# experimental.conditions: read-out: Activity

structure: CC(=O)OC[C@@]1(O)CC[C@@H]2C(CO[C@@H]3O[C@H](CO)[C@@H](O)[C@H](O)[C@H]3OC(=O)/C=C\c3ccc(O)cc3)=CO[C@@H](OC(=O)CC(C)C)[C@@H]21
viability at 24 h, 20 µM [%]: 104
--
structure: CC(C)CC(=O)O[C@@H]1OC=C(CO[C@@H]2O[C@H](CO)[C@@H](O)[C@H](O)[C@H]2OC(=O)/C=C/c2ccc(O)cc2)[C@H]2CC[C@](O)(CO)[C@@H]12
viability at 24 h, 20 µM [%]: 115
--
structure: CC(C)CC(=O)O[C@@H]1OC=C(CO[C@@H]2O[C@H](CO)[C@@H](O)[C@H](O)[C@H]2OC(=O)/C=C\c2ccc(O)cc2)[C@H]2CC[C@](O)(CO)[C@@H]12
viability at 24 h, 20 µM [%]: 102

----------
Recorded viability at 24 h, 20 µM for the following molecules
# measurement.notes: Cytotoxicity against rat C6 cells assessed as cell viability at 20 uM after 24 hrs by MTT assay relative to control
# Format: cell-based
# experimental.conditions: read-out: Activity

molecule: CCCCC/C=C/C(=O)CCc1ccc(O)c(OC)c1
viability at 24 h, 20 µM: 98.8%
--
molecule: CC(C)CC(=O)O[C@@H]1OC=C(CO[C@@H]2O[C@H](CO)[C@@H](O)[C@H](O)[C@H]2O)[C@H]2C[C@H](O)[C@](O)(CO)[C@@H]12
viability at 24 h, 20 µM: 116%
--
molecule: C=C1[C@@H]2O[C@@H](OC)[C@@H]3[C@@H](O2)[C@@H](O)C[C@H]13
viability at 24 h, 20 µM: 111%
--
molecule: C=C1[C@@H]2O[C@@H](OC)[C@@H]3[C@H](CC[C@H]13)O2
viability at 24 h, 20 µM: 106%
--
molecule: CC(=O)OC[C@@]1(O)CC[C@@H]2C(CO[C@@H]3O[C@H](CO)[C@@H](O)[C@H](O)[C@H]3OC(=O)/C=C/c3ccc(O)cc3)=CO[C@@H](OC(=O)CC(C)C)[C@@H]21
viability at 24 h, 20 µM: 120%
--
molecule: CCC(C)C(=O)O[C@@H]1OC=C(CO[C@@H]2O[C@H](CO)[C@@H](O)[C@H](O)[C@H]2OC(=O)/C=C/c2ccc(O)cc2)[C@H]2CC[C@](O)(CO)[C@@H]12 (stereo partly specified)
viability at 24 h, 20 µM: 101%

----------
Some molecules, each annotated with its measured IC50.
# Tested on: SK-MEL-2
# measurement.notes: Cytotoxicity against human SK-MEL-2 cells after 48 hrs by SRB assay
# Assay type: functional, cell-based
# experimental.conditions: SK-MEL-2, 48 h

molecule: CC(C)CC(=O)O[C@@H]1OC=C(CO[C@@H]2O[C@H](CO)[C@@H](O)[C@H](O)[C@H]2O)[C@H]2C[C@H](O)[C@](O)(CO)[C@@H]12
result.comparator: >
IC50 / µM: 10
--
molecule: C=C1[C@@H]2O[C@@H](OC)[C@@H]3[C@@H](O2)[C@@H](O)C[C@H]13
result.comparator: >
IC50 / µM: 10
--
molecule: CCC(C)C(=O)O[C@@H]1OC=C(CO[C@@H]2O[C@H](CO)[C@@H](O)[C@H](O)[C@H]2OC(=O)/C=C/c2ccc(O)cc2)[C@H]2CC[C@](O)(CO)[C@@H]12 (some centres undefined)
result.comparator: =
IC50 / µM: 1.4
--
molecule: COc1cc([C@@H]2c3cc4c(cc3[C@@H](O[C@@H]3O[C@@H]5CO[C@@H](C)O[C@H]5[C@H](O)[C@H]3O)[C@H]3COC(=O)[C@H]23)OCO4)cc(OC)c1O [ETOPOSIDE]
result.comparator: =
IC50 / µM: 0.2
--
molecule: C=C1[C@@H]2O[C@@H](OC)[C@@H]3[C@H](CC[C@H]13)O2
result.comparator: >
IC50 / µM: 10
--
molecule: CC(C)CC(=O)O[C@@H]1OC=C(CO[C@@H]2O[C@H](CO)[C@@H](O)[C@H](O)[C@H]2OC(=O)/C=C/c2ccc(O)cc2)[C@H]2CC[C@](O)(CO)[C@@H]12
result.comparator: >
IC50 / µM: 10
--
molecule: CC(=O)OC[C@@]1(O)CC[C@@H]2C(CO[C@@H]3O[C@H](CO)[C@@H](O)[C@H](O)[C@H]3OC(=O)/C=C\c3ccc(O)cc3)=CO[C@@H](OC(=O)CC(C)C)[C@@H]21
result.comparator: =
IC50 / µM: 5.2
--
molecule: CC(=O)OC[C@@]1(O)CC[C@@H]2C(CO[C@@H]3O[C@H](CO)[C@@H](O)[C@H](O)[C@H]3OC(=O)/C=C/c3ccc(O)cc3)=CO[C@@H](OC(=O)CC(C)C)[C@@H]21
result.comparator: >
IC50 / µM: 10
--
molecule: CC(C)CC(=O)O[C@@H]1OC=C(CO[C@@H]2O[C@H](CO)[C@@H](O)[C@H](O)[C@H]2OC(=O)/C=C\c2ccc(O)cc2)[C@H]2CC[C@](O)(CO)[C@@H]12
result.comparator: =
IC50 / µM: 8.4

----------
// IC50 lookup, one value per entry
# Tested on: SK-OV-3
# measurement.notes: Cytotoxicity against human SKOV3 cells after 48 hrs by SRB assay
# Type: functional, cell-based
# experimental.conditions: SK-OV-3, 48 h
parameter: IC50

molecule: CC(C)CC(=O)O[C@@H]1OC=C(CO[C@@H]2O[C@H](CO)[C@@H](O)[C@H](O)[C@H]2O)[C@H]2C[C@H](O)[C@](O)(CO)[C@@H]12
reported.measurement: > 10 µM

molecule: C=C1[C@@H]2O[C@@H](OC)[C@@H]3[C@H](CC[C@H]13)O2
reported.measurement: > 10 µM

molecule: COc1cc([C@@H]2c3cc4c(cc3[C@@H](O[C@@H]3O[C@@H]5CO[C@@H](C)O[C@H]5[C@H](O)[C@H]3O)[C@H]3COC(=O)[C@H]23)OCO4)cc(OC)c1O [ETOPOSIDE]
reported.measurement: 2.9 µM

molecule: C=C1[C@@H]2O[C@@H](OC)[C@@H]3[C@@H](O2)[C@@H](O)C[C@H]13
reported.measurement: > 10 µM

molecule: CCC(C)C(=O)O[C@@H]1OC=C(CO[C@@H]2O[C@H](CO)[C@@H](O)[C@H](O)[C@H]2OC(=O)/C=C/c2ccc(O)cc2)[C@H]2CC[C@](O)(CO)[C@@H]12 (some centres undefined)
reported.measurement: 1.9 µM

molecule: CC(=O)OC[C@@]1(O)CC[C@@H]2C(CO[C@@H]3O[C@H](CO)[C@@H](O)[C@H](O)[C@H]3OC(=O)/C=C\c3ccc(O)cc3)=CO[C@@H](OC(=O)CC(C)C)[C@@H]21
reported.measurement: 7.5 µM

molecule: CC(C)CC(=O)O[C@@H]1OC=C(CO[C@@H]2O[C@H](CO)[C@@H](O)[C@H](O)[C@H]2OC(=O)/C=C/c2ccc(O)cc2)[C@H]2CC[C@](O)(CO)[C@@H]12
reported.measurement: > 10 µM

molecule: CC(C)CC(=O)O[C@@H]1OC=C(CO[C@@H]2O[C@H](CO)[C@@H](O)[C@H](O)[C@H]2OC(=O)/C=C\c2ccc(O)cc2)[C@H]2CC[C@](O)(CO)[C@@H]12
reported.measurement: > 10 µM

molecule: CC(=O)OC[C@@]1(O)CC[C@@H]2C(CO[C@@H]3O[C@H](CO)[C@@H](O)[C@H](O)[C@H]3OC(=O)/C=C/c3ccc(O)cc3)=CO[C@@H](OC(=O)CC(C)C)[C@@H]21
reported.measurement: > 10 µM

----------
# Test system: A549
# measurement.notes: Cytotoxicity against human A549 cells after 48 hrs by SRB assay
# Type: functional, cell-based
# experimental.conditions: A549, 48 h

compound: COc1cc([C@@H]2c3cc4c(cc3[C@@H](O[C@@H]3O[C@@H]5CO[C@@H](C)O[C@H]5[C@H](O)[C@H]3O)[C@H]3COC(=O)[C@H]23)OCO4)cc(OC)c1O [ETOPOSIDE]
target.under.test: A549
IC50: 1.1 µM
//
compound: C=C1[C@@H]2O[C@@H](OC)[C@@H]3[C@@H](O2)[C@@H](O)C[C@H]13
target.under.test: A549
IC50: > 10 µM
//
compound: CC(=O)OC[C@@]1(O)CC[C@@H]2C(CO[C@@H]3O[C@H](CO)[C@@H](O)[C@H](O)[C@H]3OC(=O)/C=C/c3ccc(O)cc3)=CO[C@@H](OC(=O)CC(C)C)[C@@H]21
target.under.test: A549
IC50: > 10 µM
//
compound: CC(=O)OC[C@@]1(O)CC[C@@H]2C(CO[C@@H]3O[C@H](CO)[C@@H](O)[C@H](O)[C@H]3OC(=O)/C=C\c3ccc(O)cc3)=CO[C@@H](OC(=O)CC(C)C)[C@@H]21
target.under.test: A549
IC50: > 10 µM
//
compound: CC(C)CC(=O)O[C@@H]1OC=C(CO[C@@H]2O[C@H](CO)[C@@H](O)[C@H](O)[C@H]2OC(=O)/C=C\c2ccc(O)cc2)[C@H]2CC[C@](O)(CO)[C@@H]12
target.under.test: A549
IC50: > 10 µM
//
compound: C=C1[C@@H]2O[C@@H](OC)[C@@H]3[C@H](CC[C@H]13)O2
target.under.test: A549
IC50: > 10 µM
